melting point values by entry

Cc1oc(-c2ccccc2)nc1CCOc1ccc(CC(C(=O)O)(n2cccc2)C(F)(F)F)cc1 (stereo not drawn): 201 to 203 °C
O=C(O)[C@H](Cc1ccc(C#CCN2CCC(c3ccccc3)CC2)cc1)n1cccc1 [Example 121c]: 201 to 203 °C

Okay, now this compound:
Query: Item COc1ccc(C(Cc2ccc(OCCc3nc(-c4ccccc4)oc3C)cc2)C(=O)O)cc1 (stereo not drawn) has what recorded melting point?
Result: 114.7 to 116.6 °C

Reference source: patent US20030171377A1
